Data provenance is patent US20200316089A1.

target: recombinant human GSK3α (Homo sapiens); experiment: in vitro enzymatic assay (Kinase-Glo Max) for inhibition of GSK3α; settings: 10 uM ATP, 0.1 mg/ml GSKtide, 30° C. 40 minutes; read-out: Potency GSK-3alpha
Sequence (P49840 whole entry): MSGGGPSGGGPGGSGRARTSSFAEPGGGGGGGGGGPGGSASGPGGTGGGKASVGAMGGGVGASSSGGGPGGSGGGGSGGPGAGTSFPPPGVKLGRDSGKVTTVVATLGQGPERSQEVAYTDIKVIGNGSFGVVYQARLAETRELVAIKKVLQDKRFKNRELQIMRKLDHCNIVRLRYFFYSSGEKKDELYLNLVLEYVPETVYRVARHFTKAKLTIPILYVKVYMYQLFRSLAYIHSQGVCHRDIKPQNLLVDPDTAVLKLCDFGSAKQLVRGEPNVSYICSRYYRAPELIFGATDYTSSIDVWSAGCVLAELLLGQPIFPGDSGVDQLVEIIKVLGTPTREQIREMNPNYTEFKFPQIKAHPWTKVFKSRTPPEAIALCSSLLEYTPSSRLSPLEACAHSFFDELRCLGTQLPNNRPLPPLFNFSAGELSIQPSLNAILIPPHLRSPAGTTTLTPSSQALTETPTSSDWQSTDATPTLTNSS
In this section, each of the compounds is paired with its reported pIC50.
The quantity pIC50 is defined as the negative base-10 logarithm of the molar concentration.

INSERT INTO measurements (compound, endpoint_name, data_value) VALUES
  ('O=C(N1CCCCC1)N1CCn2cc(-c3[nH][nH]c(=O)c3-c3cnc4ccccn34)c3cc(F)cc(c32)C1 [Compound I-4]', 'pIC50', 6.46);

Lab note: next compound to report on.
Reported pIC50 ( O=C(N1CCCCC1)N1CCn2cc(-c3c(-c4cnc5ccccn45)[nH][nH]c3=O)c3cc(F)cc(c32)C1 [Compound I-52] ) = 5.00

---

biological target: recombinant human GSK3β (Homo sapiens, UniProt P49841); experiment: in vitro enzymatic assay (Kinase-Glo Max) for inhibition of GSK3β; conditions: 10 uM ATP, 0.1 mg/ml GSKtide, 30° C. 40 minutes; read-out: Potency GSK-3beta
Sequence (P49841 whole entry): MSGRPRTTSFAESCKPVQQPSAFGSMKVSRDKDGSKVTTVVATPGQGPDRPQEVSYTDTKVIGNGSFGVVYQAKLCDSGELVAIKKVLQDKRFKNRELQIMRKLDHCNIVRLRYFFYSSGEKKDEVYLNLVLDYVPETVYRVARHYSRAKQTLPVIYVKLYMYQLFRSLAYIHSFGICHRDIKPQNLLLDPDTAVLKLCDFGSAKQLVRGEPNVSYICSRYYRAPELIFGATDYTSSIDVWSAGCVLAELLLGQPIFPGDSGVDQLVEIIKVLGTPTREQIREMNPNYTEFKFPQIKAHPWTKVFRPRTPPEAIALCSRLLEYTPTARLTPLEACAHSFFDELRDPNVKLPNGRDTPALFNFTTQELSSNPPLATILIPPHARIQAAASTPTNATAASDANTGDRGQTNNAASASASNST
Endpoint Name: pIC50
Worth noting: pIC50 values are minus log10 of concentrations stated in mol/L.

Record O=C(N1CCCCC1)N1CCn2cc(-c3[nH][nH]c(=O)c3-c3cnc4ccccn34)c3cc(F)cc(c32)C1 . Reported pIC50: 6.15
